Target: UniProt Q96EB6
Sequence (Q96EB6 whole entry): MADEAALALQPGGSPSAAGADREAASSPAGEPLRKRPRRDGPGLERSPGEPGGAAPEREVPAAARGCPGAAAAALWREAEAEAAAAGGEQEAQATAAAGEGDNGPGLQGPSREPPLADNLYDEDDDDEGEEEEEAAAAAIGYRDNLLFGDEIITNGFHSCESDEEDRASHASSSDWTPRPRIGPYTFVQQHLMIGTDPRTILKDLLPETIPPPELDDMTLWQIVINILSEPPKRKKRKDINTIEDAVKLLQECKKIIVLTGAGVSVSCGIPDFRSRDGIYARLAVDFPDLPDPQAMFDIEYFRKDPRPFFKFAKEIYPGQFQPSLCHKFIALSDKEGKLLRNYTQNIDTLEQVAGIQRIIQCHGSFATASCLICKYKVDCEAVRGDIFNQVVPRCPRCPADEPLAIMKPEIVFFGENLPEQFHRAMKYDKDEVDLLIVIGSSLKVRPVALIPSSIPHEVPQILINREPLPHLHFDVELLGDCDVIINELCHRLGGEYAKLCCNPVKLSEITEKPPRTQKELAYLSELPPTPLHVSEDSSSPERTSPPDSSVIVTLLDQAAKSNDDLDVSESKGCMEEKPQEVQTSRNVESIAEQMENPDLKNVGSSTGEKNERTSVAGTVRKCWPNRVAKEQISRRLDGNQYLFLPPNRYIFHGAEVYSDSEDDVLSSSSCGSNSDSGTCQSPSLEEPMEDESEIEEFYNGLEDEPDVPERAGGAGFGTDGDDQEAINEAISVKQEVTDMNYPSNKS
Experiment: Inhibition of SirT1 in human ARN8 cells assessed as p53 activation at 5 uM by beta-galactosidase reporter gene assay relative to control
Assay type: cell-based
outcome-measure: fold change (FC)
One number for each entry.

These solved cases illustrate the format of a correct answer.
[
  {
    "smiles-entry": "CN(C)CCCCC(=O)Nc1ccc(NC(=S)NC(=O)c2ccc(Cl)c(Cl)c2)cc1",
    "fold change (FC)": 1.04
  },
  {
    "smiles-entry": "Cc1ccccc1C(=O)NC(=S)Nc1ccc(NC(=O)CCCCN(C)C)cc1",
    "fold change (FC)": 0.99
  },
  {
    "smiles-entry": "CN(C)CCCCC(=O)Nc1ccc(NC(=S)NC(=O)c2ccc(Cl)cc2)cc1",
    "fold change (FC)": 1.1
  },
  {
    "smiles-entry": "CN(C)CCCCC(=O)Nc1ccc(NC(=S)NC(=O)c2ccc(C(C)(C)C)c(Br)c2)cc1",
    "fold change (FC)": 1.1
  },
  {
    "smiles-entry": "CC(C)c1ccc(C(=O)NC(=S)Nc2ccc(NC(=O)CCCCN(C)C)cc2)cc1",
    "fold change (FC)": 8.7
  },
  {
    "smiles-entry": "CN(C)CCCCC(=O)Nc1ccc(NC(=S)NC(=O)c2ccccc2)cc1",
    "fold change (FC)": 1.1
  },
  {
    "smiles-entry": "COc1cccc(C(=O)NC(=S)Nc2ccc(NC(=O)CCCCN(C)C)cc2)c1",
    "fold change (FC)": 1.1
  },
  {
    "smiles-entry": "CN(C)CCCCC(=O)Nc1ccc(NC(=S)NC(=O)c2cccc(Cl)c2)cc1",
    "fold change (FC)": 1.1
  }
]

Hello, I would appreciate it if you could give fold change (FC) for each entry below.
1. CCCc1ccc(C(=O)NC(=S)Nc2ccc(NC(=O)CCCCN(C)C)cc2)cc1
2. CN(C)CCCCC(=O)Nc1ccc(NC(=O)NC(=O)c2ccc(C(C)(C)C)cc2)cc1

[1, 6.9]

* * *

Target: NAD-dependent protein deacetylase sirtuin-2 (Homo sapiens, UniProt Q8IXJ6)
Sequence (Q8IXJ6 whole entry): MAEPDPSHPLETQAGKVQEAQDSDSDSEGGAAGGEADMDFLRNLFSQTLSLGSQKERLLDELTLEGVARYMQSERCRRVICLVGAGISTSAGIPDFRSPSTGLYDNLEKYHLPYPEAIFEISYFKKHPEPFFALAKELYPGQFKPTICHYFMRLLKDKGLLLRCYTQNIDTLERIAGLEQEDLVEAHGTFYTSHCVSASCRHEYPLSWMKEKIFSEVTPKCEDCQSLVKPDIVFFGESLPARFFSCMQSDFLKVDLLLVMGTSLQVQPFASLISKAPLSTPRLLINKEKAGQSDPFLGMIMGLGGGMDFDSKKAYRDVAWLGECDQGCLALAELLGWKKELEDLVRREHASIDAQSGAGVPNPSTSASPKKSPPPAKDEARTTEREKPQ
Assay: Inhibition of recombinant human SitT2 by Fluor de Lys fluorescence assay
outcome-measure: IC50

Examples from the recorded data:
[
  {
    "smiles-entry": "CC(C)c1ccc(C(=O)NC(=S)Nc2ccc(NC(=O)CCCCN(C)C)cc2)cc1",
    "experimental-system": "NAD-dependent protein deacetylase sirtuin-2 (Homo sapiens, UniProt Q8IXJ6)",
    "result": "5.71 µM"
  },
  {
    "smiles-entry": "Cc1cccc(C(=O)NC(=S)Nc2ccc(NC(=O)CCCCN(C)C)cc2)c1",
    "experimental-system": "NAD-dependent protein deacetylase sirtuin-2 (Homo sapiens, UniProt Q8IXJ6)",
    "result": "> 90 µM"
  }
]

Name the recorded IC50 for `CCCCCc1ccc(C(=O)NC(=S)Nc2ccc(NC(=O)CCCCN(C)C)cc2)cc1` .
5.6 µM

* * *

Target: NAD-dependent protein deacetylase sirtuin-1 (Homo sapiens)
Assay: Inhibition of SirT1 in human ARN8 cells assessed as p53 activation at 5 uM by beta-galactosidase reporter gene assay relative to control
Format: cell-based
I'd appreciate it if you could supply fold change (FC) values for the items below.
Give bare numbers.

Consider the worked cases shown below.
[
  {
    "smiles-entry": "CN(C)CCCCC(=O)Nc1ccc(NC(=S)NC(=O)c2ccccc2Cl)cc1",
    "fold change (FC)": 1.2
  },
  {
    "smiles-entry": "CN(C)CCCCC(=O)Nc1ccc(NC(=S)NC(=O)c2ccc(Br)cc2)cc1",
    "fold change (FC)": 1
  }
]

Moving on to another molecule below.
What value of fold change (FC) has been recorded for this entry: `Cc1ccc(C(=O)NC(=S)Nc2ccc(NC(=O)CCCCN(C)C)cc2)cc1`
1.2
